System: SCC-9 (Oral Cavity Carcinoma);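 further: after 72 h of two-drug dosing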
Experiment: Bliss excess, mean over the matrix (fraction); higher = more synergy
Record 1 (yes) whenever Bliss excess is at -0.05 or higher; record 0 (no) when lower.

### Prompt Assess whether reported Bliss excess for Cc1c2c(nn1C)CSCc1cc(n(C)n1)CSc1cc(c3ccccc3c1)OCCCc1c(C(=O)O)n(C)c3c-2c(Cl)ccc13 [AZD5991] + Cc1cc2ncnn2cc1Nc1ncc2c(n1)n(C1CCOCC1)c(=O)n2C [AZD7648] (first compound max 1 µM, 7x7, partner max 10 µM) sits at -0.05 or higher.
### Response 0 (no)

====

Answer each item with its documented combination Emax.
System: GI-1 (Glioblastoma)
Test: combination Emax (second highest fraction inhibited in the dose matrix, 72 h); higher = more inhibition; extreme values may be limits of the assay
Answers are plain numbers.

Cc1c2c(nn1C)CSCc1cc(n(C)n1)CSc1cc(c3ccccc3c1)OCCCc1c(C(=O)O)n(C)c3c-2c(Cl)ccc13 [AZD5991] + CC(=O)O[C@H]1C(=O)[C@@]2(C)[C@H]([C@H](OC(=O)c3ccccc3)[C@]3(O)C[C@H](OC(=O)[C@H](O)[C@@H](NC(=O)c4ccccc4)c4ccccc4)C(C)=C1C3(C)C)[C@]1(OC(C)=O)CO[C@@H]1C[C@@H]2O [Paclitaxel] (first compound max 1 µM, 7x7, partner max 3 µM) | 0.989

### Prompt Param readout = combination Emax; param system = GI-1 (Glioblastoma); param query = O=C(c1cc(Cc2n[nH]c(=O)c3ccccc23)ccc1F)N1CCN(C(=O)C2CC2)CC1 [Olaparib] + Cc1c2c(nn1C)CSCc1cc(n(C)n1)CSc1cc(c3ccccc3c1)OCCCc1c(C(=O)O)n(C)c3c-2c(Cl)ccc13 [AZD5991] (first compound max 10 µM, 7x7, partner max 1 µM) ; response: value
### Response 0.51

====

Test system: OCUB-M (Breast Carcinoma)
Assay: combination Emax (second highest fraction inhibited in the dose matrix, 72 h); higher = more inhibition; extreme values may be limits of the assay
endpoint label: combination Emax
One number for each entry.

Below, 5 compounds whose answers are already recorded.
CN(C)CCCOc1ccc(-c2ccc3ncc4c(c3c2)n(C2CCOCC2)c(=O)n4C)cn1 [AZD0156] + O=C(c1cc(Cc2n[nH]c(=O)c3ccccc23)ccc1F)N1CCN(C(=O)C2CC2)CC1 [Olaparib] (first compound max 3 µM, partner max 3 µM) | 0.273
COc1cccc(OCCCN)c1-c1cc(Nc2cnc(C#N)cn2)n[nH]1 [Prexasertib] + Cc1cc2ncnn2cc1Nc1ncc2c(n1)n(C1CCOCC1)c(=O)n2C [AZD7648] (first compound max 1 µM, 7x7, partner max 10 µM) | 0.595
COc1cc2c(cc1OCCCCCOc1cc3c(cc1OC)C(=O)N1C=C(C)C[C@H]1C=N3)N=C[C@@H]1CC(C)=CN1C2=O [SG3199] + O=C(c1cc(Cc2n[nH]c(=O)c3ccccc23)ccc1F)N1CCN(C(=O)C2CC2)CC1 [Olaparib] (first compound max 0.001 µM, 7x7, partner max 10 µM) | 0.232
CN(C)CCCOc1ccc(-c2ccc3ncc4c(c3c2)n(C2CCOCC2)c(=O)n4C)cn1 [AZD0156] + CCN(CCO)CCCOc1ccc2c(Nc3cc(CC(=O)Nc4cccc(F)c4)[nH]n3)ncnc2c1 [AZD2811] (first compound max 1 µM, 7x7, partner max 1 µM) | 0.727
O=C(c1cc(Cc2n[nH]c(=O)c3ccccc23)ccc1F)N1CCN(C(=O)C2CC2)CC1 [Olaparib] + CN(CC[C@H](CSC1=CC=CC=C1)NC2=C(C=C(C=C2)S(=O)(=O)NC(=O)C3=CC=C(C=C3)N4CCC(CC4)[C@H](C5=CC=CC=C5C6=CC=C(C=C6)Cl)O)S(=O)(=O)C(F)(F)F)CCO [AZD4320] (first compound max 10 µM, 7x7, partner max 1 µM) | 0.454

Please report combination Emax for every entry that follows.
1. O=C(c1cc(Cc2n[nH]c(=O)c3ccccc23)ccc1F)N1CCN(C(=O)C2CC2)CC1 [Olaparib] + Cc1c2c(nn1C)CSCc1cc(n(C)n1)CSc1cc(c3ccccc3c1)OCCCc1c(C(=O)O)n(C)c3c-2c(Cl)ccc13 [AZD5991] (first compound max 10 µM, 7x7, partner max 1 µM)
2. C=CCn1c(=O)c2cnc(Nc3ccc(N4CCN(C)CC4)cc3)nc2n1-c1cccc(C(C)(C)O)n1 [AZD1775] + Nc1ccn([C@@H]2O[C@H](CO)[C@@H](O)C2(F)F)c(=O)n1 [Gemcitabine] (first compound max 1 µM, partner max 0.3 µM)

### Response
0.924
0.955

Please report combination Emax for every entry that follows.
1. CC1(C)CCC(CN2CCN(c3ccc(C(=O)NS(=O)(=O)c4ccc(NCC5CCOCC5)c([N+](=O)[O-])c4)c(Oc4cnc5[nH]ccc5c4)c3)CC2)=C(c2ccc(Cl)cc2)C1 [Venetoclax] + CS(=O)(=O)CCNCc1ccc(-c2ccc3ncnc(Nc4ccc(OCc5cccc(F)c5)c(Cl)c4)c3c2)o1 [Lapatinib] (first compound max 1 µM, 7x7, partner max 10 µM)
2. Cc1cc2ncnn2cc1Nc1ncc2c(n1)n(C1CCOCC1)c(=O)n2C [AZD7648] + C[C@@H]1COCCN1C2=NC(=NC(=C2)C3(CC3)[S@](=N)(=O)C)C4=C5C=CNC5=NC=C4 [AZD6738] (first compound max 10 µM, 7x7, partner max 10 µM)
3. C=CCn1c(=O)c2cnc(Nc3ccc(N4CCN(C)CC4)cc3)nc2n1-c1cccc(C(C)(C)O)n1 [AZD1775] + O=C(c1cc(Cc2n[nH]c(=O)c3ccccc23)ccc1F)N1CCN(C(=O)C2CC2)CC1 [Olaparib] (first compound max 1 µM, partner max 10 µM)
4. CC1(C)CCC(CN2CCN(c3ccc(C(=O)NS(=O)(=O)c4ccc(NCC5CCOCC5)c([N+](=O)[O-])c4)c(Oc4cnc5[nH]ccc5c4)c3)CC2)=C(c2ccc(Cl)cc2)C1 [Venetoclax] + CCN(CCO)CCCOc1ccc2c(Nc3cc(CC(=O)Nc4cccc(F)c4)[nH]n3)ncnc2c1 [AZD2811] (first compound max 1 µM, 7x7, partner max 1 µM)
5. Cc1c2c(nn1C)CSCc1cc(n(C)n1)CSc1cc(c3ccccc3c1)OCCCc1c(C(=O)O)n(C)c3c-2c(Cl)ccc13 [AZD5991] + C[C@@H]1COCCN1C2=NC(=NC(=C2)C3(CC3)[S@](=N)(=O)C)C4=C5C=CNC5=NC=C4 [AZD6738] (first compound max 1 µM, 7x7, partner max 10 µM)
6. Cn1cnc2c(F)c(Nc3ccc(Br)cc3Cl)c(C(=O)NOCCO)cc21 [Selumetinib] + CCN(CCO)CCCOc1ccc2c(Nc3cc(CC(=O)Nc4cccc(F)c4)[nH]n3)ncnc2c1 [AZD2811] (first compound max 10 µM, 7x7, partner max 1 µM)

### Response
1. 0.518
2. 0.49
3. 0.504
4. 0.749
5. 1
6. 0.713
